Origin of the recorded values: ChEMBL document CHEMBL3393015

tested on: MDA-MB-468; test: Induction of apoptosis in human MDA-MB-468 cells assessed as caspase 3 activity at 10 uM for 16 hrs; assay type: functional, cell-based
Activity calls are given as the source filed them. The rule behind the calls is not given here.
outcome-measure: Activity

Lab note: need Activity for `O=C(O)CSc1ccc(C(=O)c2[nH]c(Cl)c(Cl)c2-n2c(C(=O)c3ccc(SCC(=O)O)cc3O)cc(Cl)c2Cl)c(O)c1` on MDA-MB-468, anyone have it?
inactive

Form field: Activity recorded for `CCOC(=O)Cn1cc(-c2cc(O)c(C(=O)c3[nH]c(Cl)c(Cl)c3-n3c(C(=O)c4cc(Cl)c(-c5cn(CC(=O)OCC)nn5)cc4O)cc(Cl)c3Cl)cc2Cl)nn1` with MDA-MB-468 (enter value)
inactive

Request - read-out Activity | tested on MDA-MB-468 | molecule `CC(C)(C)OC(=O)Cn1cc(-c2ccc(C(=O)c3[nH]c(Cl)c(Cl)c3-n3c(C(=O)c4ccc(-c5cn(CC(=O)OC(C)(C)C)nn5)cc4O)cc(Cl)c3Cl)c(O)c2)nn1`
inactive

Can you look up Activity on MDA-MB-468 for `O=C(O)Cn1cc(-c2ccc(C(=O)c3[nH]c(Cl)c(Cl)c3-n3c(C(=O)c4ccc(-c5cn(CC(=O)O)nn5)cc4O)cc(Cl)c3Cl)c(O)c2)nn1` ?
inactive

Field: Activity (MDA-MB-468). Entry: `O=C(O)Cn1cc(-c2cc(O)c(C(=O)c3[nH]c(Cl)c(Cl)c3-n3c(C(=O)c4cc(Cl)c(-c5cn(CC(=O)O)nn5)cc4O)cc(Cl)c3Cl)cc2Cl)nn1`
inactive

---
I'm curious: which Activity was measured for `O=C(c1ccc(-c2cn(C3CCCCC3)nn2)cc1O)c1[nH]c(Cl)c(Cl)c1-n1c(C(=O)c2ccc(-c3cn(C4CCCCC4)nn3)cc2O)cc(Cl)c1Cl` tested on MDA-MB-468?
inactive

Could you share what Activity was measured for `O=C(c1ccc(O)cc1O)c1[nH]c(Cl)c(Cl)c1-n1c(C(=O)c2ccc(O)cc2O)cc(Cl)c1Cl` , tested on MDA-MB-468?
inactive

====

molecular target: Induced myeloid leukemia cell differentiation protein Mcl-1/Bcl-2-like protein 11 (Homo sapiens, UniProt Q07820); assay: Inhibition of Mcl1/Bim (unknown origin) by ELISA
Sequence (Q07820 whole entry): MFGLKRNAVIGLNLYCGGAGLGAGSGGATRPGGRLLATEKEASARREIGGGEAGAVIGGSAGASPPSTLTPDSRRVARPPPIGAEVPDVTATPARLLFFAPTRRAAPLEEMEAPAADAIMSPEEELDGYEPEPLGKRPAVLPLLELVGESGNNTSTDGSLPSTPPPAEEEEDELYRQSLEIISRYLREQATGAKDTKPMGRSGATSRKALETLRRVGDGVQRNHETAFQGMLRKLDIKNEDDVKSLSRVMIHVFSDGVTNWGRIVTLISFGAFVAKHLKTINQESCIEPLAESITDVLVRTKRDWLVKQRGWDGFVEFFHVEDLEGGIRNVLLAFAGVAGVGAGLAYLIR
Sequence (O43521 whole entry, further chain): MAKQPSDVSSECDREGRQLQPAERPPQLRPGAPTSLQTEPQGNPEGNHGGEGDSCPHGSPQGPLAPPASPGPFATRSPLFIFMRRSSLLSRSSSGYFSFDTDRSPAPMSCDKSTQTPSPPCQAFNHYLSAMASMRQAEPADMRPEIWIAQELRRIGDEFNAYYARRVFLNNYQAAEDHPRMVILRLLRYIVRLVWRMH
List of pIC50 values.
Reminder that pIC50 means the negative base-10 logarithm of the concentration expressed in mol/L.

Known results for compounds:
I am curious: what pIC50 value has been reported for `O=C(c1ccccc1O)c1[nH]c(Cl)c(Cl)c1-n1c(C(=O)c2c(O)cccc2F)cc(Cl)c1Cl` ?
4.88

# lookup: pIC50 of `COc1ccccc1C(=O)c1[nH]c(Cl)c(Cl)c1-n1c(C(=O)c2ccc(Cl)cc2OC)cc(Cl)c1Cl`
5.10

Would you mind telling me what pIC50 value was observed for `O=C(c1ccc(-c2cn(Cc3ccccc3)nn2)cc1O)c1[nH]c(Cl)c(Cl)c1-n1c(C(=O)c2ccc(-c3cn(Cc4ccccc4)nn3)cc2O)cc(Cl)c1Cl` ?
5.48

Fill blank: measured pIC50 of the compound `CCCCCCCCn1cc(-c2ccc(C(=O)c3[nH]c(Cl)c(Cl)c3-n3c(C(=O)c4ccc(-c5cn(CCCCCCC)nn5)cc4O)cc(Cl)c3Cl)c(O)c2)nn1` is ____.
6.22

State the recorded pIC50 for this entry: `O=C(c1ccccc1O)c1[nH]c(Cl)c(Cl)c1-n1c(C(=O)c2cc(Cl)ccc2O)cc(Cl)c1Cl`
5.41

Others:
What value of measured pIC50 is listed for `O=C(c1ccc(-c2cn(-c3ccccc3)nn2)cc1O)c1[nH]c(Cl)c(Cl)c1-n1c(C(=O)c2ccc(-c3cn(-c4ccccc4)nn3)cc2O)cc(Cl)c1Cl` ?
5.82

Quick one: pIC50 for `O=C(c1ccc(-c2cn(C3CCCCC3)nn2)cc1O)c1[nH]c(Cl)c(Cl)c1-n1c(C(=O)c2ccc(-c3cn(C4CCCCC4)nn3)cc2O)cc(Cl)c1Cl` ?
5.85

Quick check: pIC50 of `COc1ccccc1C(=O)c1c(-n2c(C(=O)c3ccccc3OC)cc(Cl)c2Cl)c(Cl)c(Cl)n1C` ?
4.81
